Where do these numbers come from? They come from patent US20170290876A1.

Listed below: koff values for each entry.
Molecular target: T1, human VEGF (human, UniProt P15692 207-395, biotinylated (site not stated))
T1 construct: Biotinylated human VEGF generated internally; also called hVEGF; hVEGF-biotin
T1 sequence: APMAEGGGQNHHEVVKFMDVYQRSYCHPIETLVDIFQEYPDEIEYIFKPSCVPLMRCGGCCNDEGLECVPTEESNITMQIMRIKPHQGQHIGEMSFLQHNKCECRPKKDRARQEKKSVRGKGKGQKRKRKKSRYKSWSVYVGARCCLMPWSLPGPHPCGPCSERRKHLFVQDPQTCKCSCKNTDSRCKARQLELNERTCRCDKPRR
Assay: Biacore SPR, hVEGF
# unit: s⁻¹ | format: bare number

{"columns": ["BINDER", "UNIT OF MEASUREMENT", "koff"],
 "data": [
  ["LC2T (Fab, V domains shown, Light chain CDR variant LC2 with tagged NVS4 heavy chain) VH: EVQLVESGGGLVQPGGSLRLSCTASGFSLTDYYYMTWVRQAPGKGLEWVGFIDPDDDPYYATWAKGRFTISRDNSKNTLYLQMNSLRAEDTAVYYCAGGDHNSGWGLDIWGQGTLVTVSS VL: EIVMTQSPSTLSASVGDRVIITCQASQKIHSWLAWYQQKPGKAPKLLIYQASKLAKGVPSRFSGSGSGAEFTLTISSLQPDDFATYYCQNVYLASTNGANFGQGTKLTVLK", "s⁻¹", 0.000109]
]}

Task item: Answer with the recorded koff for the binder listed here: NVS4 heavy chain variant Y32H (Fab, V domains shown, CDR variant of NVS4; The label Y32H is printed in two rows (r156, r159) with different values) VH: EVQLVESGGGLVQPGGSLRLSCTASGFSLTDHYYMTWVRQAPGKGLEWVGFIDPDDDPYYATWAKGRFTISRDNSKNTLYLQMNSLRAEDTAVYYCAGGDHNSGWGLDIWGQGTLVTVSS VL: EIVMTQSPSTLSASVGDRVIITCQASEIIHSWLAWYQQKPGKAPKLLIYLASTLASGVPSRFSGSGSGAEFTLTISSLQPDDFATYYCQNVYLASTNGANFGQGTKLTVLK
Reply: 0.000112

Task item: Answer with the recorded koff for the binder listed here: HC3T (Fab, V domains shown, Tagged heavy chain CDR variant HC3 with NVS4 light chain) VH: EVQLVESGGGLVQPGGSLRLSCTASGFSLTNYYYMTWVRQAPGKGLEWVGFIDPQNNPYYATWAKGRFTISRDNSKNTLYLQMNSLRAEDTAVYYCAGGNHNSGWGLDIWGQGTLVTVSS VL: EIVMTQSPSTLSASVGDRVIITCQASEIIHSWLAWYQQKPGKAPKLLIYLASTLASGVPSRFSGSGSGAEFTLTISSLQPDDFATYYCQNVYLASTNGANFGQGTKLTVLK
Reply: 0.00898

Task item: Answer with the recorded koff for the binder listed here: NVS4 heavy chain variant Y34H (Fab, V domains shown, CDR variant of NVS4) VH: EVQLVESGGGLVQPGGSLRLSCTASGFSLTDYYHMTWVRQAPGKGLEWVGFIDPDDDPYYATWAKGRFTISRDNSKNTLYLQMNSLRAEDTAVYYCAGGDHNSGWGLDIWGQGTLVTVSS VL: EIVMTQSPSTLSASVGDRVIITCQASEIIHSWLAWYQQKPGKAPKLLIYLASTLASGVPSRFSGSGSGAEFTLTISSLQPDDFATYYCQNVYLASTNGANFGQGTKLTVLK
Reply: 0.000445
